Reference for the values: ChEMBL document CHEMBL1201862

system: M14; test: NCI tumour cell line growth inhibition, 48 h
Activity calls are given as the source filed them. No stated cut-off is given here; in the data, active = GI50 up to about 1.1 µM and inactive = higher.
Your response should consist of one outcome taken from active, inactive

>>> group_label("CC1=CC2C3(C)C(C)(C(C)=CP3(=O)c3c(C(C)C)cc(C(C)C)cc3C(C)C)C1P2(=O)c1c(C(C)C)cc(C(C)C)cc1C(C)C (centres undefined)")
"inactive"
>>> group_label("CN(C)/C(=N/C(=O)Nc1ccccc1)SCc1ccccc1")
"inactive"
>>> group_label("C[Si](C)(OCCS(=O)(=O)O)C1(Cc2cccc3ccccc23)S(=O)(=O)OCCOS1(=O)=O")
"inactive"
>>> group_label("COc1cc(O)c2c(c1)OCC1(Cc3cc(OC)c(OC)cc31)C2=O (centres undefined)")
"inactive"
>>> group_label("NCC1(N2CCOCC2)C2CCCC21CNc1ccccc1 (centres undefined)")
"inactive"

## Task What call does the record list for Fc1cccc(Cl)c1C1SCc2nc3cc4ccccc4cc3n21 (centres undefined) ?
## Result inactive

## Task Field entry: COC(=O)/C=C\C(C#N)(C#N)/N=C/c1ccc(OC)cc1
## Result inactive

## Task Also check O=C1CCCCCCCCCCC(=O)C2CCOCCOCCOCCC1Cc1cccc(n1)C2
## Result inactive

## Task Entry to check: Cc1ccc(NC(=O)c2cc(S(=O)(=O)Nc3n[nH]c(=O)[nH]3)c(SSc3cc(Cl)c(C(=O)Nc4ccc(C)cc4)cc3S(=O)(=O)Nc3n[nH]c(=O)[nH]3)cc2Cl)cc1
## Result inactive

## Task And for Nc1ccc([As](=O)(O)O)cc1 ?
## Result inactive

## Task Now consider S=c1sc2sc(=S)sc2s1 .
## Result inactive

## Task Try this molecule next: O=[N+]([O-])/C(C(Cl)=C(Cl)Cl)=C(\SCc1ccccc1)N1CCCCC1
## Result inactive

## Task COC1/C=C/C(C)C(OC)CC(O)/C=C/C(C)C(C(C)C(OC)C(C)CCC(=O)C(C)C(C/C=C/N(C)C=O)OC)OC(=O)/C=C/C=C(\C)CC(OC)CC2=CC(=O)O[C@@H](C(C)C(OC)C1)[C@H]2O (some centres undefined) , same question.
## Result active

## Task Cool, now Cc1ccc(S(=O)(=O)/N=C2/N(C)CCCS2(=O)=O)cc1
## Result inactive

## Task Same for CC(C)(C)[Si](C)(C)O/N=C\c1cccc(O[Si](C)(C)C(C)(C)C)c1
## Result inactive

## Task Thanks! And Clc1cc2nnn(C3CCCO3)c2cc1Cl (centres undefined) ?
## Result inactive

## Task Same read-out for O=C(CNc1ccc([N+](=O)[O-])cc1)Nn1c(-c2ccccc2)nc2ccccc2c1=O ?
## Result inactive

## Task Would you kindly repeat that for CS(=O)(=O)Nc1ccc(NCc2c[nH]c3ccc4ncccc4c23)cc1 ?
## Result inactive

## Task What do you have for C=C1C(=O)C23CC1CCC2C12CO[C@H](O)[C@H]1C(C)(C)[C@H](OC(C)=O)C[C@H]2OC3=O (some centres undefined) ?
## Result inactive

## Task What about this molecule? COc1cc2c[n+](C)c3c4cc(OC)c(OC(C)C)cc4ccc3c2cc1OC
## Result inactive

###

tested on: SK-MEL-5; test: NCI tumour cell line growth inhibition, 48 h
Structures can show the parent of a compound that is named as a salt. Calls of active or inactive are those of the source. Cut-off read from the data, not from the text of the source: active = GI50 up to about 1.1 µM and inactive = higher.
# valid calls are Y = active, N = inactive; nothing else

Please review the entries below; each comes with its answer.
>>> group_label("O=C(O)c1ccccc1C(=O)c1ccc2c(c1)Cc1ccccc1-2")
"N"
>>> group_label("CN/C(N)=N/N=C1/C(=O)Nc2ccccc21")
"N"
>>> group_label("O=C(O)C1(C(=O)O)CC1(C(=O)O)C(=O)O")
"N"
>>> group_label("O=[N+]([O-])c1ccc2nc(O)c(/C=C(\\O)c3ccccc3)nc2c1")
"N"
>>> group_label("O=C1CC(c2n[nH]c3ccccc23)C(=O)N1c1ccccc1 (centres undefined)")
"N"
>>> group_label("C=CCN(c1cc(OCc2ccccc2)c2c(c(C)cn2S(=O)(=O)c2ccc([N+](=O)[O-])cc2)c1[N+](=O)[O-])S(C)(=O)=O")
"N"
>>> group_label("O=C(c1ccccc1)N1C(=O)N(c2ccccc2)C(=N/c2ccccc2)/C1=N\\c1ccccc1")
"N"
>>> group_label("COc1cc2c(c(O)c1OC)C(=O)[C@@H]1CCC(=O)N1C2")
"N"

## Task # fetch the recorded call for O=C1COc2ccc([N+](=O)[O-])cc2C(=O)C1 here
## Result N

## Task Note, next up: CS(=O)(=O)Nc1ccc(NCc2c[nH]c3ccc4ncccc4c23)cc1
## Result N

## Task Thanks! And C=C1C(=O)C23CC1CCC2C12CO[C@H](O)[C@H]1C(C)(C)[C@H](OC(C)=O)C[C@H]2OC3=O (some centres undefined) ?
## Result N

## Task // repeat for CSC1=C(C#N)C(=O)N(c2ccc(C)cc2)C(=S)C1C#N (centres undefined) and report
## Result N

## Task Then what about the compound CC(=O)N(O)CCCCCNC(=O)CCC(=O)N(O)CCCCCNC(=O)CCC(=O)N(O)CCCCCN [DEFEROXAMINE HYDROCHLORIDE] ?
## Result N

## Task What do you have for CC(=O)O[C@H]1C(=O)[C@@]2(C)[C@H]([C@H](OC(=O)c3ccccc3)[C@]3(O)C[C@H](OC(=O)[C@H](O)[C@@H](NC(=O)c4ccccc4)c4ccccc4C)C(C)=C1C3(C)C)[C@]1(OC(C)=O)CO[C@@H]1C[C@@H]2O ?
## Result Y

## Task Try this compound next: CN(C)/C(=N/C(=O)Nc1ccccc1)SCc1ccccc1
## Result N
